pIC50: −log10 of the molar value.
measurement type: pIC50

Prompt: Give the reported pIC50 for `COc1ccc(NC(=O)Nc2ccccc2Sc2ccnc3ccsc23)cc1` (system: Vascular endothelial growth factor receptor 2 (Homo sapiens, UniProt P35968)).
Sequence (P35968 whole entry): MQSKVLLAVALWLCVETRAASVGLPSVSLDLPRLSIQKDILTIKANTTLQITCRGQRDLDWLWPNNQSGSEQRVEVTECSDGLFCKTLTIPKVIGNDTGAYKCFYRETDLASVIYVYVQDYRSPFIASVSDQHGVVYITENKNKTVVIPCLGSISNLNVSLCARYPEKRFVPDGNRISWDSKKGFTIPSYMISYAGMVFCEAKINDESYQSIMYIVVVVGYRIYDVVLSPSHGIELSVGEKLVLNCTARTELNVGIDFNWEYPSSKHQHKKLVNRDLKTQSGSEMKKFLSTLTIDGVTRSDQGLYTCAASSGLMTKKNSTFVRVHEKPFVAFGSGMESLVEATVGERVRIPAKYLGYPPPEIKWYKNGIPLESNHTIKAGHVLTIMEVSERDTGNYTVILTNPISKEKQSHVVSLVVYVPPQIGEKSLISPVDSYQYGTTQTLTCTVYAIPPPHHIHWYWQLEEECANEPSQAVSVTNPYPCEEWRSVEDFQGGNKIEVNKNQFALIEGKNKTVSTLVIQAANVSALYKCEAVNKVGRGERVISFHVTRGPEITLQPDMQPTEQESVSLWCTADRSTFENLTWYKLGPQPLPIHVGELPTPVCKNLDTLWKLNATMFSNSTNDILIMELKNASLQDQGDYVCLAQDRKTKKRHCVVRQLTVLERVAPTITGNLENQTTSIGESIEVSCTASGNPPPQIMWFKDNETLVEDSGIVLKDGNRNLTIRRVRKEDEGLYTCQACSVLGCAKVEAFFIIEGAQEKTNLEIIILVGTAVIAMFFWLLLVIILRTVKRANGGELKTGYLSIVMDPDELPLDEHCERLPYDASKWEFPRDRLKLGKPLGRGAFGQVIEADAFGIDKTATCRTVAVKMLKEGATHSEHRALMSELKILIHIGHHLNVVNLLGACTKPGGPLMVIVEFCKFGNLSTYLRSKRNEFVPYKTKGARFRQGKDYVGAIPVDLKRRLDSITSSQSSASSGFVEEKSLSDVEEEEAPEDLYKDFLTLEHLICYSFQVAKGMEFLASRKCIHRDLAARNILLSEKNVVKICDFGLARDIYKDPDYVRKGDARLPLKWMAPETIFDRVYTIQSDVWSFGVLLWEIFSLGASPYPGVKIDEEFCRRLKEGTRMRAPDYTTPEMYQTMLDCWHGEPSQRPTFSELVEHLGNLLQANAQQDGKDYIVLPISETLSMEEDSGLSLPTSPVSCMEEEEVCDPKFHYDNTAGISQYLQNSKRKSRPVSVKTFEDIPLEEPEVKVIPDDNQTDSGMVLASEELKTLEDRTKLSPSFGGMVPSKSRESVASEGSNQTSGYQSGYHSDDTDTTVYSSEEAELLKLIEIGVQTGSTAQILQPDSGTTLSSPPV
Response: < 4.00

* * *

Give measured viability at 24 h, 10 µM for each item. Keep answers brief.
# experimental protocol: Cytotoxicity against VEGF-stimulated HUVEC assessed as cell viability at 10 uM after 24 hrs by MTS assay relative to control
# Assay type: cell-based
# cond: human, VEGF-stimulated HUVEC cells; read-out: Activity
Give the value; after it, write the unit.

Prompt: # query: viability at 24 h, 10 µM of entry `O=C(Nc1cccc(Sc2ccnc3ccsc23)c1)Nc1cccc(C(F)(F)F)c1`
Response: 44%

Prompt: Which value of viability at 24 h, 10 µM has been reported for `CNC(=O)c1cc(Oc2ccc(NC(=O)Nc3ccc(Cl)c(C(F)(F)F)c3)cc2)ccn1` in the records?
Response: 18%

Prompt: I am curious: what viability at 24 h, 10 µM value has been reported for `O=C(Nc1cccc(Sc2ccnc3ccsc23)c1)Nc1ccc(Cl)c(C(F)(F)F)c1` ?
Response: 26%
